Tested on: 786-0 renal
Assay: NCI tumour cell line growth inhibition, 48 h
Let's look at some compounds and their measured GI50.

>>> reported_result("C=C1C(=O)O[C@H]2[C@H]1CC/C(COC(=O)NCc1ccc(OC)cc1)=C\\CC[C@@]1(C)O[C@@H]21")
"0.7 µM"
>>> reported_result("CSc1ncc(Br)c(Sc2nc(N)nc3nc[nH]c23)n1")
"3.82 µM"
>>> reported_result("[O-]c1ccccc1C=Nc1ccc2c(c1)CCC2.[O-]c1ccccc1C=Nc1ccc2c(c1)CCC2.[O]=[U+2]=[O]")
"40.3 µM"

Please look at this compound and report its GI50: CCCCCCCC(=O)OCCCC1[C@]2(C)CC[C@@]3(C)C([C@H](C)CCC=C(C)C)CC[C@]3(C)C2CC[C@]12OC2(C)C (stereo partly specified) > 100 µM

Return the recorded GI50 value; entry: O=C1C2=C(C(=O)c3cnccc31)C1C=CC2CC1 (stereo unspecified) 1.95 µM

Identify GI50 associated with the compound Clc1cccc(N2CCN(CCCN3CCc4c([nH]c5ccccc45)C3c3cccnc3)CC2)c1 (stereo unspecified) 7.08 µM

====

System: RXF 393 renal
Experiment: NCI tumour cell line growth inhibition, 48 h
Measured TGI accompanies every entry in the list below.
Give the value in µM but do not write µM after it.

# count of solved cases: 3
>>> reported_result("Cc1ncc(C(=O)Nc2ccc(CN3CCN(C)CC3)c(C(F)(F)F)c2)cc1C#Cc1ccc(N)nc1")
0.892
>>> reported_result("C=C[C@@]1(O)CCCC[C@@H]1CC(Sc1ccccc1)Sc1ccccc1")
30.5
>>> reported_result("COC(=O)C1=C(CS(=O)c2ccc([N+](=O)[O-])cc2[N+](=O)[O-])C2C=CC1C2 (stereo not given)")
52.1

Now let's try a different one.
Supply TGI value. Item: COc1cc2ncnc(-n3ncc4cc(NC(=O)Nc5ccc(Cl)c(Cl)c5)ccc43)c2cc1OC 3.29

====

Test system: RPMI-8226 leukemia
Assay: NCI tumour cell line growth inhibition, 48 h
Measured TGI, listed per entry for reference.
The figure you give is taken to be in µM; do not add the unit.

>>> reported_result("O=c1cccccc1NCCCCCCCNc1cccccc1=O")
55.1
>>> reported_result("O=C(Nc1ccc(F)cc1F)c1cc(Cl)ccc1O")
3.83
>>> reported_result("CCN1CCN(c2cc(C)nc(N(CCCNc3ccnc4cc(Cl)ccc34)Cc3ccc4c(c3)OCO4)n2)CC1")
4.49
>>> reported_result("Cc1cccc2nc3c(=O)[nH]c(=O)nc-3n(C)c12")
95.4
>>> reported_result("CN(C)c1nc(=NCc2ccco2)ss1")
36.3

Lab note: next molecule to report on.
Assign TGI to the following record: CCN1CCN(Cc2ccc(NC(=O)Nc3nc4ccc(Oc5ccnc(C(=O)NC)c5)cc4s3)cc2C(F)(F)F)CC1 5.34

====

Tested on: RXF-631 renal
Assay: NCI tumour cell line growth inhibition, 48 h
Measured Property: TGI (µM)
// units = µM; emit number, no label

>>> reported_result("Cc1cccc2c1c1ccc3c(c1n2C)C(=O)C=CC3=O")
49.6

Item COC(=O)C1=C(CS(=O)c2ccc([N+](=O)[O-])cc2[N+](=O)[O-])C2C=CC1C2 (stereo not given) : provide TGI 32.7

Input CC(=O)NNc1nc(C)c(C(=O)NNC(=O)C(=O)Nc2cccc(C(C)=O)c2)s1 , output reported TGI. 68.3

====

Tested on: HOP-92 NSCLC
Assay: NCI tumour cell line growth inhibition, 48 h
Measured Property: GI50

>>> reported_result("Oc1c(Cl)cc(Cl)c2ccc(Cn3cc(-c4cc(C(F)(F)F)cc(C(F)(F)F)c4)nn3)nc12")
"1450 nM"
>>> reported_result("COc1cccc(CN(C)c2ccc(CO)c(Cl)c2)c1")
"6970 nM"
>>> reported_result("CSc1ncc(Br)c(Sc2nc(N)nc3nc[nH]c23)n1")
"456 nM"
>>> reported_result("O=C(/C=C/c1ccc(C(F)(F)F)cc1)Nc1ccc(C=C2c3ccccc3C(=O)c3ccccc32)cc1")
"1490 nM"

API: the following record is the query input.
Return GI50 (reported value) for this compound: NC(=O)[C@@H](CC1CC1)[C@@H](CCC(F)(F)F)C(=O)N[C@H]1N=C(c2ccccc2)c2cccc(F)c2NC1=O 19300 nM

====

Test system: MDA-MB-231 breast
Test: NCI tumour cell line growth inhibition, 48 h
Listed here are compounds together with their documented GI50.

>>> reported_result("CCOC(=O)c1c(C)n(Cc2ccc(Cl)cc2Cl)c2c1cc1oc(=O)c(=O)n3cnc2c13")
"15.7 µM"
>>> reported_result("COc1cccc(CN(C)c2ccc(CO)c(Cl)c2)c1")
"31 µM"
>>> reported_result("O=C(/C=C/c1ccc(O)c(O)c1)NCc1c[nH]c2ccccc12")
"75.9 µM"
>>> reported_result("CCCCCCCC(=O)OCCCC1[C@]2(C)CC[C@@]3(C)C([C@H](C)CCC=C(C)C)CC[C@]3(C)C2CC[C@]12OC2(C)C (stereo not given in full)")
"10.8 µM"

Give GI50 for NS(=O)(=O)c1ccc(N2N=C3c4ccccc4CC3C2c2cccs2)cc1 (stereo not given) 16.8 µM

====

Test system: A498 renal
Experiment: NCI tumour cell line growth inhibition, 48 h
Measured Property: TGI (µM)
Output spec: scalar in µM, unitless text.

Look over these answered cases.
>>> reported_result("CN1CCN(CCOc2ccc(-c3cnc4c(-c5cccc(F)c5)cnn4c3)cc2)CC1")
5.7
>>> reported_result("COc1ccc2nc3c(c(NCCCN(C)C)c2c1)CCCC3")
36.3
>>> reported_result("COc1ccc(/C=C/C(=O)c2ccc(-n3cc(CN4CCN(c5cc6c(cc5F)c(=O)c(C(=O)O)cn6C5CC5)CC4)nn3)cc2)cc1OC")
14.4

Consider the record given below.
Output TGI of CC(C)c1nc(N(C)S(C)(=O)=O)nc(-c2ccc(F)cc2)c1/C=C/[C@@H](O)C[C@@H](O)CC(=O)O 20.8

====

System: NCI-H522 lung
Assay: NCI tumour cell line growth inhibition, 48 h
true means recorded TGI is 30 µM or above; false means it is below 30 µM.

>>> assigned_category("COc1ccc(C(=O)c2cc3c(N)c(C(=O)Nc4ccccc4)sc3nc2C)cc1")
"true"

Is reported TGI greater than or equal to 30 µM here: O=[N+]([O-])c1cccc(-c2nc(-c3ccccc3)c(-c3ccccc3)[nH]2)c1 true

Say whether CC(=O)NC1=C(NCCCl)C(=O)c2ccccc2C1=O shows TGI of 30 µM or more. true

====

Tested on: SW-620 colon
Assay: NCI tumour cell line growth inhibition, 48 h; in the data active = GI50 below about 0.43 µM; inactive = the rest
Pick one: T for active, F for inactive

Solved cases (5 shown):
>>> assigned_category("O=C(/C=C/c1ccc(C(F)(F)F)cc1)Nc1ccc(C=C2c3ccccc3C(=O)c3ccccc32)cc1")
"F"
>>> assigned_category("COc1ccc(/C=C/C(=O)c2ccc(-n3cc(CN4CCN(c5cc6c(cc5F)c(=O)c(C(=O)O)cn6C5CC5)CC4)nn3)cc2)cc1OC")
"F"
>>> assigned_category("NC(=O)[C@@H](CC1CC1)[C@@H](CCC(F)(F)F)C(=O)N[C@H]1N=C(c2ccccc2)c2cccc(F)c2NC1=O")
"F"
>>> assigned_category("COC(=O)C12CC(NC(=O)c3csc([C@@H](C[C@H](C(C)C)N(C)C(=O)[C@@H](NC(=O)[C@H]4CCCCN4C)C4CC4)OC(C)=O)n3)(C1)C2")
"T"
>>> assigned_category("CCOC(=O)c1c(C)n(Cc2ccc(Cl)cc2Cl)c2c1cc1oc(=O)c(=O)n3cnc2c13")
"F"

Tell me the recorded outcome of this test for NS(=O)(=O)c1ccc(N=Nc2c(O)[nH]c3ccc(C(=O)NCc4ccncc4)cc23)cc1 . F

Field: outcome | Entry: C#CCNC(=S)N/N=C(\C)c1ccccn1 T

Which outcome was assigned to CN(C)CCNC(=O)c1ccc(-c2nc3ccc4[nH]ncc4c3c3c2C2CCC3C2)cc1 (stereo not drawn) in this test? F

====

System: HCT-15 colon
Assay: NCI tumour cell line growth inhibition, 48 h; in the data active = GI50 below about 0.43 µM; inactive = the rest
Write down one outcome, taken from Y (active), N (inactive)

Consider the following illustrative entries.
>>> assigned_category("CN1CCN(Cc2ccc(NC(=O)c3cncc(C#Cc4cnc(N)cc4C#N)c3)cc2C(F)(F)F)CC1")
"N"
>>> assigned_category("CCCCCCCCOC(=O)c1c(C)[nH]c(/C=C2\\N=C(c3ccc[nH]3)C=C2OC)c1C")
"Y"
>>> assigned_category("O=C(/C=C/c1ccc(C(F)(F)F)cc1)Nc1ccc(C=C2c3ccccc3C(=O)c3ccccc32)cc1")
"N"
>>> assigned_category("Cc1cc(Nc2nc(C(=O)Nc3ccccc3)nc3ccccc23)n[nH]1")
"N"
>>> assigned_category("C=C/C(C)=C/C[C@]1(C)[C@H](C)[C@@H](OC(=O)CCC)[C@H](O)[C@@]23C(=C[C@H](OC)C[C@@H]12)[C@@H](OC(=O)CCC)O[C@H]3OC(C)=O")
"Y"

Answer briefly: the call reported for Cc1ncc(C(=O)Nc2ccc(CN3CCN(C)CC3)c(C(F)(F)F)c2)cc1C#Cc1ccc(N)nc1 in this assay. Y

Given O=c1c2cc(-c3ccccc3)sc2ncn1Cc1ccc(Cl)c(Cl)c1 , state the outcome it received in this test. N

Look up the recorded call for CN(Cc1ccc(C(F)(F)F)cc1)CC(O)C(=O)Nc1ccc(Cl)cc1 (stereo not given) in this test. N

Dear colleague, could you share the recorded outcome for CN(C)CCNC(=O)c1ccc(-c2nc3ccc4[nH]ncc4c3c3c2C2CCC3C2)cc1 (stereo not given) when you have a moment? N

Any idea what this test logged for CC[C@@]1(OC(=O)CN)C(=O)OCc2c1cc1n(c2=O)Cc2c-1nc1cc3c(cc1c2CCl)OCO3 ? Y

I would be grateful if you could indicate the recorded call for O=C1C2=C(C(=O)c3cnccc31)C1C=CC2CC1 (stereo not given) . N

// param item: COc1cccc(CN(C)c2ccc(CO)c(Cl)c2)c1 ; yields the recorded call N

Recorded call for Cn1cccc1-c1cc(-c2ccccc2)[nH]c(=O)c1C#N ? N

So what was the verdict on CC1=C2C(=CC(C)(C)[C@@H]2O)C(=O)[C@](C)(O)C12CC2 in this test? Y

For O=C(Nc1ccc(-n2ccc3c(NC(=O)c4ccccc4)ncnc32)cc1)c1cccc(C(F)(F)F)c1 , which call appears in the assay record? Y
